Reported pIC50 values for a set of compounds
# System: OS-RC-2;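 note: growth inhibition of human OS-RC-2 cells, measured by a cell viability assay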
# ASSAY NOTES: cells
# Assay type: functional, cell-based, Homo sapiens
# TEST SETTINGS: Homo sapiens, OS-RC-2
# Description: SANGER: Inhibition of human OS-RC-2 cell growth in a cell viability assay.
Entry type: numeric. Quantity: pIC50, the -log10 of concentration in molar units.

### Prompt Supply recorded pIC50 for COC(=O)CNC(=O)C(=O)OC here.
### Response 2.76

### Prompt Supply recorded pIC50 for COc1cc([C@@H]2c3cc4c(cc3[C@@H](O[C@@H]3O[C@@H]5CO[C@@H](C)O[C@H]5[C@H](O)[C@H]3O)[C@H]3COC(=O)[C@H]23)OCO4)cc(OC)c1O [ETOPOSIDE] here.
### Response 4.95

### Prompt Supply recorded pIC50 for Nc1ccn([C@@H]2O[C@H](CO)[C@@H](O)[C@@H]2O)c(=O)n1 [CYTARABINE] here.
### Response 5.80

Origin of measurements: ChEMBL document CHEMBL1201861
